Molecular target: hSTING protein (Homo sapiens)
Sequence (Q86WV6 whole entry H232R): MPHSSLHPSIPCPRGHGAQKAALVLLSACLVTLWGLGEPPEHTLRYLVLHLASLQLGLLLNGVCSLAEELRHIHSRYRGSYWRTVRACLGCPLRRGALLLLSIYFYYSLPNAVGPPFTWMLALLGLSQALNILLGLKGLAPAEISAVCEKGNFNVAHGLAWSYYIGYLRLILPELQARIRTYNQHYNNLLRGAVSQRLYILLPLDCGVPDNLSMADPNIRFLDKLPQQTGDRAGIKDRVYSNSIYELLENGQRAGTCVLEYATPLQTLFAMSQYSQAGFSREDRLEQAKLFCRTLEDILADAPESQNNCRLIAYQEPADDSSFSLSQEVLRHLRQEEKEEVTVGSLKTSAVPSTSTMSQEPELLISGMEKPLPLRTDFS
pKi: −log10 of the molar value.
readout: pKi

[P] COc1cc2sc(C(=O)N(C)CCC(=O)O)cc2cc1OCCCOc1cc2sc(C(=O)CCC(=O)O)cc2cc1OC
[Q] COc1cc2cc(C(=O)CCC(=O)O)sc2cc1OC [Control Compound 2, reference compound]
Which value of pKi is smaller, the one for P or the one for Q ? Answer = label.
Q

* * *

System: STING-mediated interferon (IFN) signal reporter gene in THP1-Blue™ ISG cells
Assay: STING-mediated interferon (IFN) signal SEAP reporter gene assay in THP1-Blue ISG cells
Format: cell-based, human
Conditions: highest OD620nm value generated by stimulation of the compound, 16 h
Catalogue of compounds with associated Emax (OD620nm)
Please give a number only; it is taken to be in OD620nm.

The following compounds have reported results that may help.
Emax (OD620nm) of COc1cc2cc(C(=O)CCC(=O)O)sc2cc1OCCCOc1cc2sc(C(=O)N(C)CCC(=O)O)cc2cc1OC on STING-mediated interferon (IFN) signal reporter gene in THP1-Blue™ ISG cells?
1.82

Emax (OD620nm) of COc1cc2sc(C(=O)CCC(=O)O)cc2cc1OCCCOc1cc2cc(C(=O)N(C)CCC(=O)O)sc2cc1OC on STING-mediated interferon (IFN) signal reporter gene in THP1-Blue™ ISG cells?
1.73

New cases:
Emax (OD620nm) of CCOC(=O)CCC(=O)c1cc2cc(OC)c(OCCCOc3cc4sc(C(=O)N(C)CCC(=O)OCC)cc4cc3OC)cc2s1 on STING-mediated interferon (IFN) signal reporter gene in THP1-Blue™ ISG cells?
1.54

Emax (OD620nm) of CCOC(=O)CCC(=O)c1cc2cc(OCCCOc3cc4cc(C(=O)N(C)CCCOC)sc4cc3OC)c(OC)cc2s1 on STING-mediated interferon (IFN) signal reporter gene in THP1-Blue™ ISG cells?
1.74

Emax (OD620nm) of COc1cc2cc(C(=O)CCC(=O)O)sc2cc1OC [Control Compound 2, reference compound] on STING-mediated interferon (IFN) signal reporter gene in THP1-Blue™ ISG cells?
1.49

Emax (OD620nm) of CCOC(=O)CCC(=O)c1cc2cc(OC)c(OCCCOc3cc4cc(C(=O)N(C)CCC(=O)OCC)sc4cc3OC)cc2s1 on STING-mediated interferon (IFN) signal reporter gene in THP1-Blue™ ISG cells?
1.92

Emax (OD620nm) of CCOC(=O)CCC(=O)c1cc2cc(OCCCOc3cc4sc(C(=O)N(C)CCC(=O)OCC)cc4cc3OC)c(OC)cc2s1 on STING-mediated interferon (IFN) signal reporter gene in THP1-Blue™ ISG cells?
1.94

Emax (OD620nm) of COc1cc2sc(C(=O)CCC(=O)O)cc2cc1OCCCOc1cc2sc(C(=O)N(C)CCC(=O)O)cc2cc1OC on STING-mediated interferon (IFN) signal reporter gene in THP1-Blue™ ISG cells?
1.88

Emax (OD620nm) of Nc1ncnc2c1ncn2[C@@H]1O[C@@H]2COP(=O)([S-])O[C@@H]3[C@H](O)[C@@H](COP([O-])(=S)O[C@H]2[C@H]1O)O[C@H]3n1cnc2c(N)ncnc21.[Na+].[Na+] (stereo partly shown) [Control Compound 1, ADU-S100, reference compound] on STING-mediated interferon (IFN) signal reporter gene in THP1-Blue™ ISG cells?
2.03

Emax (OD620nm) of COc1cc2sc(C(=O)N(C)CCC(=O)O)cc2cc1OCCCOc1cc2sc(C(=O)CCC(=O)O)cc2cc1OC on STING-mediated interferon (IFN) signal reporter gene in THP1-Blue™ ISG cells?
1.97

Every entry's value here was drawn from patent US12269816B2.
